# key: entry, value: Ki
- targetOrSystem: α2-adrenoceptor
- measurementProtocol: Competitive radioligand binding, [3H]clonidine, rat cerebral cortex
- studyConditions: n.a. = no activity at 10–5 M
Report only the number, with the unit nM understood.

Here's what some known entries look like.
[H]/N=C(\N)NN=Cc1c(Cl)cncc1Cl [JP-14] :: 126
N#Cc1cc(/C=N/NC(=N)N)ccc1F :: 996
COc1ccc(F)c(/C=N/NC(=N)N)c1F [8 (JP10)] :: 232

Consider the record given below.
For the record COc1ccc(/C=N/NC(=N)N)cc1 [4 (JP06)] , what value of Ki is listed for α2-adrenoceptor?
1070
